Molecular target: T1, rat MASP-2cf CCP1-CCP2-SP (rat, UniProt Q9JJS8 298-685)
T1 construct: range 298-685; Mw 42309 Da; also called rat MASP-2 catalytic fragment
T1 sequence (Q9JJS8 other isoform, or with tags, fused parts or gaps limits assumed, form in doubt): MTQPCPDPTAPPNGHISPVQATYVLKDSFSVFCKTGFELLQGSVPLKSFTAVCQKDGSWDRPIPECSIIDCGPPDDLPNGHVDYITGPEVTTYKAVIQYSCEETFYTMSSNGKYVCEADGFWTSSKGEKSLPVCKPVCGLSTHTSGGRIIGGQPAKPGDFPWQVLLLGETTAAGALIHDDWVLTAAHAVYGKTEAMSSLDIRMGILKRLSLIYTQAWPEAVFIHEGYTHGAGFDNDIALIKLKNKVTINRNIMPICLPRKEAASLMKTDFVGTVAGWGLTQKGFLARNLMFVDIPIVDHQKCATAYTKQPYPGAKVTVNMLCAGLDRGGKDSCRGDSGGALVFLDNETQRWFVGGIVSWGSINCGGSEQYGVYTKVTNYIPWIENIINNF
Assay: SPR, target immobilised
Where no end group is shown, it is not given here.
In this section, each of the binders is paired with its reported Kd.
Just the number please, in nM, no unit attached.

Q) Value lookup for Kd; key = EVO23 (designed binder, not fully specified; cysteine pairing not given here, Modified TFPI-D2 Kunitz domain; made as m1) KPDFCFLENDPGPCRALKRRYFYNNQTKQCERFYYGGCFGNMNNFVTLEECKNICEDG
A) 0.674

Q) Item under review: EVO22b (designed binder, not fully specified; cysteine pairing not given here, Modified TFPI-D2 Kunitz domain; made as m1) KPDFCFLENDPGPCRALARRYFYNNQTKQCERFYYGGCLGNMNNFVTLEECKNICEDG . Reported Kd?
A) 0.163

Q) Reported Kd, binder EVO2b (designed binder, not fully specified; cysteine pairing not given here, Modified TFPI-D2 Kunitz domain; made as m1) KPDFCFLEEDPGPCRAVKRRYFYNNQTKQCERFGYGGCLGNMNNFETLEECKNICEDG : ____
A) 1.95

Please find the next binder below.
Q) Can you look up the measured Kd of EVO212 (designed binder, not fully specified; ends and bridges not checked, Modified TFPI-D2 Kunitz domain; made as m1) KPDFCFLENDPGLCRALKRRYFYNNQTKQCERFGYGGCLGNMNNFVTLEECKNICEDG for me?
A) 1.26
